Provide the reported % inhibition Apo pol 5' of each item.
target: P. falciparum apicoplast DNA polymerase (Pf-apPOL) (Plasmodium falciparum, UniProt Q8ILY1); test: Fluorescence-based high-throughput DNA polymerase assay (molecular beacon), primary screen and dose-response; type: biochemical; settings: DRC-2, 5', concentration 80
Sequence (Q8ILY1 entry or part of it): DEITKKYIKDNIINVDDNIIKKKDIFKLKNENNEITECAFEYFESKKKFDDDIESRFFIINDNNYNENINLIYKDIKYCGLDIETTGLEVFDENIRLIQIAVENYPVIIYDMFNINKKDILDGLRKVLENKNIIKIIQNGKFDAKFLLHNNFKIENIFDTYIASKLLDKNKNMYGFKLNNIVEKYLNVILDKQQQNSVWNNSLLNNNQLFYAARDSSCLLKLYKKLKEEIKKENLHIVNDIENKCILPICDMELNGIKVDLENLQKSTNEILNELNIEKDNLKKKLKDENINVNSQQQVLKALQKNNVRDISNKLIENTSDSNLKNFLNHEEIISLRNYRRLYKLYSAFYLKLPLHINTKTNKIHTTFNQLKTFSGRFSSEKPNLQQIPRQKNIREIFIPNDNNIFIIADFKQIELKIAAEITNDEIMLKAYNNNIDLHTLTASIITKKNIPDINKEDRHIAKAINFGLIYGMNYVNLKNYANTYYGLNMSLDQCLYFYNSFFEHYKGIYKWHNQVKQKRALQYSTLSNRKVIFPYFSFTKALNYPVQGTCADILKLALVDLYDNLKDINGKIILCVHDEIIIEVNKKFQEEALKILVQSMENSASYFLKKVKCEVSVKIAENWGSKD
The number alone won't do; follow it with the unit.

Which measured % inhibition Apo pol 5' belongs to CSC(C)C(=O)C=CN(C)C (stereo not shown) , tested on P. falciparum apicoplast DNA polymerase (Pf-apPOL) (Plasmodium falciparum, UniProt Q8ILY1)?
48%

Which measured % inhibition Apo pol 5' belongs to `O=C(O)C(=O)Nc1nc(-c2ccc3c(c2)OCCO3)cs1` , tested on P. falciparum apicoplast DNA polymerase (Pf-apPOL) (Plasmodium falciparum, UniProt Q8ILY1)?
46%

Which measured % inhibition Apo pol 5' belongs to `O=[N+]([O-])c1cc2c(cc1CN1CCN(c3cccc(Cl)c3)CC1)OCO2` , tested on P. falciparum apicoplast DNA polymerase (Pf-apPOL) (Plasmodium falciparum, UniProt Q8ILY1)?
49%

Which measured % inhibition Apo pol 5' belongs to `O=C(Nc1nnc(-c2cccs2)o1)c1ccc([N+](=O)[O-])o1` , tested on P. falciparum apicoplast DNA polymerase (Pf-apPOL) (Plasmodium falciparum, UniProt Q8ILY1)?
70%

Which measured % inhibition Apo pol 5' belongs to O=C(c1c[nH]c2ncccc12)N1CCCCCC1 [Molecule 51, O=C(c1c[nH]c2c1cccn2)N1CCCCCC1] , tested on P. falciparum apicoplast DNA polymerase (Pf-apPOL) (Plasmodium falciparum, UniProt Q8ILY1)?
36%

Which measured % inhibition Apo pol 5' belongs to `CCSc1nnc(NC(=O)Cc2csc(NC(=O)c3cnccn3)n2)s1` , tested on P. falciparum apicoplast DNA polymerase (Pf-apPOL) (Plasmodium falciparum, UniProt Q8ILY1)?
62%

Which measured % inhibition Apo pol 5' belongs to `COc1ccc2c(c1)CCc1c-2nc2ccc(Br)cc2c1C(=O)O` , tested on P. falciparum apicoplast DNA polymerase (Pf-apPOL) (Plasmodium falciparum, UniProt Q8ILY1)?
60%

Which measured % inhibition Apo pol 5' belongs to O=C(O)CC1SC(c2ccc3c(c2)OCO3)=NC1=O (stereo not shown) , tested on P. falciparum apicoplast DNA polymerase (Pf-apPOL) (Plasmodium falciparum, UniProt Q8ILY1)?
49%

Okay, here is my list. What is % inhibition Apo pol 5' for each of these?
1. Cn1nc(C(=O)N2CCc3c(nc4cc(-c5ccccc5)[nH]n4c3=O)C2)c2ccccc21
2. O=c1cc(-c2ccccc2)oc2c(O)c(O)ccc12

["30%", "42%"]

Okay, here is my list. What is % inhibition Apo pol 5' for each of these?
1. O=[N+]([O-])c1cc2c(cc1CN1CCCCCC1)OCO2
2. O=C(O)CC1=NN(c2cccc([N+](=O)[O-])c2)C(=O)C1
3. CC1=NNC(=O)C1Oc1ccc(Cl)cc1Cl (stereo not shown)
4. COc1cc(/C=C2\S/C(=N/C(C)=O)NC2=O)cc(Br)c1OCC(=O)O
5. O=C(Nc1nnc(-c2ccno2)o1)c1ccc2c(c1)OCO2

49%
66%
52%
60%
26%

Which measured % inhibition Apo pol 5' belongs to O=C(NNC(=O)C(F)(F)Sc1ccccc1)c1ccsc1 [Molecule 68, O=C(C(Sc1ccccc1)(F)F)NNC(=O)c1cscc1] , tested on P. falciparum apicoplast DNA polymerase (Pf-apPOL) (Plasmodium falciparum, UniProt Q8ILY1)?
58%

---

molecular target: P. falciparum apicoplast DNA polymerase (Pf-apPOL) (Plasmodium falciparum, UniProt Q8ILY1); assay: Fluorescence-based high-throughput DNA polymerase assay (molecular beacon), primary screen and dose-response; format: biochemical; settings: 'DNA Pol' (screen value); unit not given; 90 min, 10 µM
measurement.label: DNA Pol
Answers are plain numbers.

Name the recorded DNA Pol for CC(C)CC(C(=O)O)N1C(=O)C2C3C=CC(C2C1=O)C1C(=O)N(C(CC(C)C)C(=O)O)C(=O)C31 (stereo not drawn) [KU0193449] .
28

Name the recorded DNA Pol for Cn1nc(-c2nnc(-c3ccccc3F)o2)c2c1CCN(C(=O)c1ccccc1Cl)C2 [Molecule 34] .
48

Next item in the queue.
Name the recorded DNA Pol for O=C(c1ccccc1)N1CCc2c(nc3cc(-c4ccccc4)[nH]n3c2=O)C1 [Molecule 30] .
51

---

Provide the reported % inhibition Apol 90' of each item.
target: P. falciparum apicoplast DNA polymerase (Pf-apPOL) (Plasmodium falciparum, UniProt Q8ILY1); assay: Fluorescence-based high-throughput DNA polymerase assay (molecular beacon), primary screen and dose-response; format: biochemical; details: DRC-1; 90'; concentration 2.5
Give bare numbers, in %.

Some entries whose results are on file:
Name the recorded % inhibition Apol 90' for COc1ccc2c(c1)C(c1ccccc1OC)CC(=O)O2 (stereo not drawn) .
-7.663

Name the recorded % inhibition Apol 90' for `O=C1CCCC2=C1C(c1ccccn1)C1=C(CCCC1=O)O2` .
2.669

Name the recorded % inhibition Apol 90' for CCOC(=O)C(NCc1ccco1)(NC(=O)c1ccco1)C(F)(F)F (stereo not drawn) .
-1.328

Okay, here is my list. What is % inhibition Apol 90' for each of these?
1. O=C(NNC(=O)C(F)(F)Sc1ccccc1)c1ccsc1 [Molecule 68, O=C(C(Sc1ccccc1)(F)F)NNC(=O)c1cscc1]
2. O=C(NNC(=O)c1ccc(Cl)cc1)C(=O)NNC(=O)c1ccc(Cl)cc1
3. O=C(CSc1nnc(-c2ccncc2)[nH]1)c1ccc(O)c(O)c1
4. CSCCC(C)(O)CNC(=O)C1CC1 (stereo not drawn)
5. Cl.NC(CO)C(=O)NNCc1ccc(O)c(O)c1O (stereo not drawn)
6. COc1ccc(-c2cc3nc4c(c(=O)n3[nH]2)CCN(C(=O)CCc2ccccc2)C4)cc1
7. Cc1cccc(-c2nnc3ccc(NS(=O)(=O)c4ccc(C)c(C)c4)nn23)c1
8. O=c1cc(CN2CCCCC2)c2cc3c(cc2o1)OCO3

1. -2.054
2. -1.798
3. 43.8309
4. 7.582
5. -5.483
6. -3.33
7. 8.645
8. 2.551

Okay, here is my list. What is % inhibition Apol 90' for each of these?
1. COc1ccc(S(=O)(=O)/N=C2\NC(=O)/C(=C3\C(=O)Nc4ccc([N+](=O)[O-])cc43)S2)cc1
2. O=[N+]([O-])c1cc2c(cc1CN1CCCCCC1)OCO2
3. O=C1C(=Cc2ccncc2)Oc2c1ccc1c2CN(Cc2ccc3c(c2)OCO3)CO1

1: 1.843; 2: 1.395; 3: 5.905

Okay, here is my list. What is % inhibition Apol 90' for each of these?
1. OC(C#Cc1ccccc1)c1ccco1 (stereo not drawn)
2. Cc1nn(CC(=O)NCCSCc2ccco2)c(C)c1Br
3. CCSc1nnc(NC(=O)Cc2csc(NC(=O)c3cnccn3)n2)s1
4. O=C(Nc1c2c(nn1-c1ccc(Oc3ccccc3)cc1)CSC2)c1ccco1

17.4442
-1.178
-9.3965
4.683

---

target: bacteriophage T4 DNA polymerase (Enterobacteria phage T4, UniProt P04415); construct: made in house; assay: Counter-screen against bacteriophage T4 DNA polymerase; assay type: biochemical; settings: DRC-1; read at 130'; concentration 10
Sequence (P04415 whole entry): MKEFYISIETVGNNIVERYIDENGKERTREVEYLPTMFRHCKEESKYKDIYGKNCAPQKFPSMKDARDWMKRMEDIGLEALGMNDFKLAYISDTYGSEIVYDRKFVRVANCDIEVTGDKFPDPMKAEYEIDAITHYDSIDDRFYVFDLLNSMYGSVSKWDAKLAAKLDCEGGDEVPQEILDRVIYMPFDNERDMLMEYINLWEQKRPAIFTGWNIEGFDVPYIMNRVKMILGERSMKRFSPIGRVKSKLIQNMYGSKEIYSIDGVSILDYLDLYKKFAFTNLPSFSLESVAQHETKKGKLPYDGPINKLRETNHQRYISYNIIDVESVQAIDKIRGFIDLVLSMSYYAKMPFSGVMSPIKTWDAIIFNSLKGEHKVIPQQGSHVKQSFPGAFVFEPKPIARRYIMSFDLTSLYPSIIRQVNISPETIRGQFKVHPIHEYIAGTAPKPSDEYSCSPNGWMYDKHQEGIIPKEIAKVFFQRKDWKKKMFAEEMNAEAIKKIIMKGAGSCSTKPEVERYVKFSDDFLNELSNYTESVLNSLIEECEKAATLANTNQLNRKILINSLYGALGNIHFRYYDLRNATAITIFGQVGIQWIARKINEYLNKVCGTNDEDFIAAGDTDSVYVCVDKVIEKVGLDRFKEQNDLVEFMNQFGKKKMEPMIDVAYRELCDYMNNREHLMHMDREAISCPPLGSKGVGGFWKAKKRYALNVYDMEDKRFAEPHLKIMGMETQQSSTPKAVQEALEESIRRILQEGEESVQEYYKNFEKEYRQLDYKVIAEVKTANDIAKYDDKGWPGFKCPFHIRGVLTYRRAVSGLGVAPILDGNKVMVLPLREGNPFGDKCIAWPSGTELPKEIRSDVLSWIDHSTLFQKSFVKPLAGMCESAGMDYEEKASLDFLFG
measurement.label: % inhibition T4 130' 10 (%)
One number for each entry, in %.

Some entries whose results are on file:
Name the recorded % inhibition T4 130' 10 for Cn1nc(-c2nnc(-c3ccccc3F)o2)c2c1CCN(C(=O)c1ccccc1Cl)C2 [Molecule 34] .
-2.33

Name the recorded % inhibition T4 130' 10 for N#Cc1c(O)nc(N2CCCCC2)nc1-c1ccc2c(c1)OCO2 [KU0083146] .
-3.465

Name the recorded % inhibition T4 130' 10 for O=C1CSC2=NC3=C(CCc4ccccc43)C(c3cccs3)N12 (centres unmarked) [Molecule 59, O=C1CSC2=NC3=C(C(N12)c1cccs1)CCc1c3cccc1] .
10.7499

Okay, here is my list. What is % inhibition T4 130' 10 for each of these?
1. Cc1cccc(-c2noc(C(=O)NNC(=O)C(Cl)(Cl)Cl)n2)c1 [KU0266208]
2. Nc1cc(Oc2ccc(O)c(N)c2)ccc1O [KU0034728]
3. COc1ccc(/C=C/c2cc(C(=O)O)c3ccccc3n2)cc1 [Molecule 5, COc1ccc(cc1)/C=C/c1nc2ccccc2c(c1)C(=O)O]
4. Cc1ccsc1Cn1c(C)ccc1C [Molecule 70, Cc1ccsc1Cn1c(C)ccc1C]
5. COc1ccc(C2CC(c3ccc(Cl)cc3Cl)Nc3nc(N)nn32)cc1OC (centres unmarked) [Molecule 43]
6. Cc1cc2[nH]c(C(=O)Nc3ccc(F)cc3)c(CN3CCOCC3)c2s1 [Molecule 60]
7. COc1ccccc1CC(=O)N1CCc2c(nc3cc(-c4ccccc4Cl)[nH]n3c2=O)C1 [Molecule 49]

[-1.107, 11.1726, 4.495, 3.714, 0.362, 9.245, -5]
